The measured values listed here are drawn from the supplement of paper PMC10899765.

System: MCF10A
Assay: 5+ nucleoli phenotype percent effect (relative to siNT 0% and siKIF11 100%); higher = more cells with five or more nucleoli
Details: 20 nM; 72 h
# label = y if 5+ nucleoli phenotype percent effect >= 10% else n

Reference set, count: 5
chain_sequence="CGCACCUGCCUCUCACCCACAG [hsa-miR-6804-3p]" qualitative_label=y
chain_sequence="AGCUUUUGGGAAUUCAGGUAGU [hsa-miR-3140-3p]" qualitative_label=n
chain_sequence="UCUGGGCACAGGCGGAUGGACAGG [hsa-miR-5189]" qualitative_label=n
chain_sequence="CAUUGCACUUGUCUCGGUCUGA [hsa-miR-25-3p]" qualitative_label=n
chain_sequence="CUCAAACCGGCUGUGCCUGUGG [hsa-miR-6715b-3p]" qualitative_label=n

Prompt: // inclusive: 5+ nucleoli phenotype percent effect at least 10%? input: GGACCCACCCGGCCGGGAAUA [hsa-miR-1180-5p]
Completion: y

Prompt: // inclusive: 5+ nucleoli phenotype percent effect at least 10%? input: UCCAGGGAGACAGUGUGUGAG [hsa-miR-7113-5p]
Completion: n

Prompt: // inclusive: 5+ nucleoli phenotype percent effect at least 10%? input: UGCCUUCCUGUCUGUG [hsa-miR-4297]
Completion: n

Prompt: // inclusive: 5+ nucleoli phenotype percent effect at least 10%? input: UCACAAAUCUAUAAUAUGCAGG [hsa-miR-4719]
Completion: y

Prompt: // inclusive: 5+ nucleoli phenotype percent effect at least 10%? input: GGGAAAAGGAAGGGGGAGGA [hsa-miR-6124]
Completion: y

Prompt: // inclusive: 5+ nucleoli phenotype percent effect at least 10%? input: AGUGGAUGAUGGAGACUCGGUAC [hsa-miR-3691-5p]
Completion: n

Prompt: // inclusive: 5+ nucleoli phenotype percent effect at least 10%? input: AUCAAAUAAGGACUAGUCUGCA [hsa-miR-3671]
Completion: y

###

System: MCF10A
Assay: percent viability (nuclei count relative to siNT); higher = more viable cells
Conditions: 20 nM; 72 h
Binning of percent viability into classes: L: < 50%; M: ≥ 50% and < 90%; H: ≥ 90%

Reference set, count: 7
chain_sequence="CGCUCUAGGCACCGCAGCA [hsa-miR-1301-5p]" qualitative_label=M
chain_sequence="AAAAGUAAUUGUGGUUUUUGC [hsa-miR-548ay-5p]" qualitative_label=H
chain_sequence="UGUGGGUUCUGGGUUGGGGUGA [hsa-miR-6793-5p]" qualitative_label=L
chain_sequence="AGGCCCUGUCCUCUGCCCCAG [hsa-miR-6775-3p]" qualitative_label=L
chain_sequence="GCAGUUCUGAGCACAGUACAC [hsa-miR-4277]" qualitative_label=H
chain_sequence="AACCCCUAAGGCAACUGGAUGG [hsa-miR-5195-5p]" qualitative_label=M
chain_sequence="GGCUCAAUCUCUGGUCCUGCAGCC [hsa-miR-7158-5p]" qualitative_label=H

Prompt: Which bin should I file UGGGUGGUCUGGAGAUUUGUGC [hsa-miR-1293] under?
Completion: L

###

Below, each entry is listed with its recorded one-nucleolus phenotype percent effect.
Test system: MCF10A
Assay: one-nucleolus phenotype percent effect (relative to siNT 0% and siNOL11 100%); higher = more cells with one nucleolus (ribosome biogenesis inhibition)
Settings: 20 nM; 72 h
I only need the number, in %, no unit after it.

Observe how each entry below is paired with its result.
chain_sequence="UGGAUAUGAUGACUGAAA [hsa-miR-4791]" measured_property="one-nucleolus phenotype percent effect" readout_number=-7.67
chain_sequence="UUGGACAGAAAACACGCAGGAA [hsa-miR-4520a-3p]" measured_property="one-nucleolus phenotype percent effect" readout_number=-3.29

Prompt: Look up one-nucleolus phenotype percent effect: UGUGACAAUAGAGAUGAACAUG [hsa-miR-4504]
Completion: 30.4

Prompt: Look up one-nucleolus phenotype percent effect: GAGCUUAUUCAUAAAAGUGCAG [hsa-miR-590-5p]
Completion: -0.31

Prompt: Look up one-nucleolus phenotype percent effect: AUGGGGACAGGGAUCAGCAUGGC [hsa-miR-6810-5p]
Completion: 45.5

Prompt: Look up one-nucleolus phenotype percent effect: AAGCCUGCCCGGCUCCUCGGG [hsa-miR-596]
Completion: -4

Prompt: Look up one-nucleolus phenotype percent effect: GGAGUGGGCUGGUGGUU [hsa-miR-4481]
Completion: 5.61

Prompt: Look up one-nucleolus phenotype percent effect: UAAAGUGGCAGAGUAUAGACAC [hsa-miR-4796-3p]
Completion: -1.57

Prompt: Look up one-nucleolus phenotype percent effect: CAGUUCAGAAGUGUUCCUGAGU [hsa-miR-5000-5p]
Completion: -9.77

Prompt: Look up one-nucleolus phenotype percent effect: UGAGGGCUCCAGGUGACGGUGG [hsa-miR-4721]
Completion: 27.2

Prompt: Look up one-nucleolus phenotype percent effect: UGAGGCCCUUGGGGCACAGUGG [hsa-miR-5008-5p]
Completion: 6.37

Prompt: Look up one-nucleolus phenotype percent effect: CCCUGGGCCUCUGCUCCCCAG [hsa-miR-939-3p]
Completion: 17.1

Prompt: Look up one-nucleolus phenotype percent effect: UUUGGGAUUGACGCCACAUGUCU [hsa-miR-6513-5p]
Completion: -20.1

Prompt: Look up one-nucleolus phenotype percent effect: AGGUAGAAUGAGGCCUGACAU [hsa-miR-4650-3p]
Completion: 7.9

Prompt: Look up one-nucleolus phenotype percent effect: AUCUGCUCUCUUGUUCCCAG [hsa-miR-6828-3p]
Completion: 2.43

Prompt: Look up one-nucleolus phenotype percent effect: GCCCAAAGGUGAAUUUUUUGGG [hsa-miR-186-3p]
Completion: -20.2

Prompt: Look up one-nucleolus phenotype percent effect: UUCUGGAUAACAUGCUGAAGCU [hsa-miR-5706]
Completion: -32.6

Prompt: Look up one-nucleolus phenotype percent effect: ACCUGAAUUACCAAAAGCUUU [hsa-miR-3140-5p]
Completion: -18.7

Prompt: Look up one-nucleolus phenotype percent effect: AUGGCCAAAACUGCAGUUAUUUU [hsa-miR-548s]
Completion: 8.89

Prompt: Look up one-nucleolus phenotype percent effect: CAAACCCCUGUCUACCCGCAG [hsa-miR-6771-3p]
Completion: 15.7

Prompt: Look up one-nucleolus phenotype percent effect: AUAAAGCUAGAUAACCGAAAGU [hsa-miR-9-3p]
Completion: 48.4

Prompt: Look up one-nucleolus phenotype percent effect: AACUCGUGUUCAAAGCCUUUAG [hsa-miR-4636]
Completion: 8.89

Prompt: Look up one-nucleolus phenotype percent effect: GCAGCCCAGCUGAGGCCUCUG [hsa-miR-4690-3p]
Completion: -17.1

Prompt: Look up one-nucleolus phenotype percent effect: UUCACUGGAGUUUGUUUCAAUA [hsa-miR-653-3p]
Completion: -7.51
